Origin of measurements: patent US11731976B2

# Assayed system: hNaV1.6-N984K (Homo sapiens, UniProt Q9UQD0, N984K)
# Construct: expressed in transfected cells; host or cells: HEK-293
# Sequence (Q9UQD0 whole entry N984K): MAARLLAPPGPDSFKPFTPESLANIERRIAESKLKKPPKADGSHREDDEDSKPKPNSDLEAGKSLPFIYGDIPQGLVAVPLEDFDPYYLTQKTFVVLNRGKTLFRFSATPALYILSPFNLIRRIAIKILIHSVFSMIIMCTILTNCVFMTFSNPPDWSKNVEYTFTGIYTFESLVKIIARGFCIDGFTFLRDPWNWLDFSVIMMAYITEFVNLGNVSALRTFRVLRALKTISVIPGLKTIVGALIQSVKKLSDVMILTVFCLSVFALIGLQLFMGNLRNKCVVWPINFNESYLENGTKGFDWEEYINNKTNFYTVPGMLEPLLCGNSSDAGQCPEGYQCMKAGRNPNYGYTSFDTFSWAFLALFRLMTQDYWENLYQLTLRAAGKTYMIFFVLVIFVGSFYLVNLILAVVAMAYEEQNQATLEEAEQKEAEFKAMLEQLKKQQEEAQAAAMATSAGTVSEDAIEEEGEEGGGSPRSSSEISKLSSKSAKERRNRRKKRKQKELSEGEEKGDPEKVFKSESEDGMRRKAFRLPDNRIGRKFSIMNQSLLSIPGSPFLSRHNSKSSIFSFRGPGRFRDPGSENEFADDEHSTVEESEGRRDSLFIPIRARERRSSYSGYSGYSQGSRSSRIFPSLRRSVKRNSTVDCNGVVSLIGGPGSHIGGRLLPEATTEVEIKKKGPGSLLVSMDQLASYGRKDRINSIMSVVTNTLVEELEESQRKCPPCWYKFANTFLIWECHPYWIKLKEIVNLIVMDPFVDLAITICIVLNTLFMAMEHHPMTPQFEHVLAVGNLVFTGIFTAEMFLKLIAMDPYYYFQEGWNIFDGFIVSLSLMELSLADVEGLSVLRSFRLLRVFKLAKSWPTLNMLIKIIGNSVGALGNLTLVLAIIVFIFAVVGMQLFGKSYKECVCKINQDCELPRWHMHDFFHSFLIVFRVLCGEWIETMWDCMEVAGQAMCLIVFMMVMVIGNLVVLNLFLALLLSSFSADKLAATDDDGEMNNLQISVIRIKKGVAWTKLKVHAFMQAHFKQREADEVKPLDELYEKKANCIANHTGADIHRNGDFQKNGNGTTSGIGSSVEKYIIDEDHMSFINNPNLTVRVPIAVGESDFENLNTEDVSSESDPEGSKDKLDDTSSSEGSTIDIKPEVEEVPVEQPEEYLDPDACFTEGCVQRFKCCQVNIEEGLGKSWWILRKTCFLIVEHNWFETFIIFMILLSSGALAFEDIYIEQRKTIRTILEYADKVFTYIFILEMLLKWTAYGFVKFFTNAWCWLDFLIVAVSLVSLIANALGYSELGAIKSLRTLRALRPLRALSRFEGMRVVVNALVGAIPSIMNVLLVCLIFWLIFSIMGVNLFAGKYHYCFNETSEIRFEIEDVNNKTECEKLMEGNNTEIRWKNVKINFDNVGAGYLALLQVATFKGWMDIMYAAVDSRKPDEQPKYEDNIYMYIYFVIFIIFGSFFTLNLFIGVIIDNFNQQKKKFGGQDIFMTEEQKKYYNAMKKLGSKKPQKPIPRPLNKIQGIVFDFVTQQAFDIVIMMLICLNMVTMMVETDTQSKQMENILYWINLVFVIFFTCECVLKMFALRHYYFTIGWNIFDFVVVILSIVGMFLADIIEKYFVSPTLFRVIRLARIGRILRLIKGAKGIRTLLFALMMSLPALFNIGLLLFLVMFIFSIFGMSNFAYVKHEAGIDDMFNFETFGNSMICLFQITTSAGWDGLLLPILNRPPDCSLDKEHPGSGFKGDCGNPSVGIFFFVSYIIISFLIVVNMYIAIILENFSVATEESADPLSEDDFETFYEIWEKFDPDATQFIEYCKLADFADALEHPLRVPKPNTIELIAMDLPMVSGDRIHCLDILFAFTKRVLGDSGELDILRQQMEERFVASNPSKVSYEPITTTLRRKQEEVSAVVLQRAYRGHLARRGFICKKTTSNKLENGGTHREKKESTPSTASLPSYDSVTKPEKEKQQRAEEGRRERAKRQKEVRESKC
# Assay text: Voltage ramp activated sodium current (Ramp INa), PatchXpress, HEK-293
# Assay type: cell-based
# Conditions used: HEK293; percent inhibition of enhanced ramp current at 1 μM; +600 mv/sec ramp from −100 mV to +20 mV
inhibition at 1 µM values by entry

Fetch value of inhibition at 1 µM on hNaV1.6-N984K (Homo sapiens, UniProt Q9UQD0, N984K) for COC(F)(F)c1nnc2cnc(-c3cnc(OCC(F)(F)F)c(F)c3)cn12 [Compound 53] .
< 50%

Fetch value of inhibition at 1 µM on hNaV1.6-N984K (Homo sapiens, UniProt Q9UQD0, N984K) for COCc1nnc2cnc(-c3cnc(OC(C)(C)C(F)(F)F)c(F)c3)cn12 [Compound 48] .
< 50%

Fetch value of inhibition at 1 µM on hNaV1.6-N984K (Homo sapiens, UniProt Q9UQD0, N984K) for CCOC(F)(F)c1nnc2cnc(-c3cnc(OCC(F)(F)F)c(F)c3)cn12 [Compound 10] .
< 50%

Fetch value of inhibition at 1 µM on hNaV1.6-N984K (Homo sapiens, UniProt Q9UQD0, N984K) for COC(F)(F)c1nnc2cnc(-c3cnc(OC4(C(F)(F)F)CCC4)c(F)c3)cn12 [Compound 11] .
> 50%

Fetch value of inhibition at 1 µM on hNaV1.6-N984K (Homo sapiens, UniProt Q9UQD0, N984K) for COC(F)(F)c1nnc2cnc(-c3ccc(OC(C)(C)C(F)(F)F)nc3)cn12 [Compound 56] .
> 50%

Fetch value of inhibition at 1 µM on hNaV1.6-N984K (Homo sapiens, UniProt Q9UQD0, N984K) for CCOC(F)(F)c1nnc2ccc(-c3cnc(OCC(F)(F)F)c(F)c3)cn12 [Compound 3] .
> 50%

Fetch value of inhibition at 1 µM on hNaV1.6-N984K (Homo sapiens, UniProt Q9UQD0, N984K) for COC(F)(F)c1nnc2cnc(-c3ccc(O[C@H](C)C(F)(F)F)nc3)cn12 [Compound 62] .
> 50%

Fetch value of inhibition at 1 µM on hNaV1.6-N984K (Homo sapiens, UniProt Q9UQD0, N984K) for COC(F)(F)c1nnc2cnc(-c3cnc(O[C@@H](C)C(F)(F)F)c(F)c3)cn12 [Compound 6B] .
> 50%

Next:
Fetch value of inhibition at 1 µM on hNaV1.6-N984K (Homo sapiens, UniProt Q9UQD0, N984K) for COC(F)(F)c1nnc2cnc(-c3ccc(O[C@@H](C)C(F)(F)F)nc3)cn12 [Compound 59] .
> 50%

---

# Assayed system: human NaV1.6 (hNaV1.6) (Homo sapiens, UniProt Q9UQD0)
# Construct: expressed in transfected cells; host or cells: HEK-293
# Sequence (Q9UQD0 whole entry): as the sequence (Q9UQD0 whole entry N984K) above, with K984N counted along it
# Assay text: Modulation of late sodium current (INaL), PatchXpress electrophysiology, HEK-293 cells expressing hNaV1.6
# Type: cell-based
# Conditions used: HEK293, late current evoked by 300 nM ATX-II, read-out: NaV 1.6 Assay Data: percent inhibition of INaL at hNaV1.6
Endpoint name: inhibition at 1 µM

Below: 3 molecules and their reported inhibition at 1 µM.
For CC(C)COC(F)(F)c1nnc2ccc(-c3cnc(O[C@@H](C)C(F)(F)F)c(F)c3)cn12 , write its inhibition at 1 µM.
> 70%

For CCOC(F)(F)c1nnc2cnc(-c3cnc(O[C@@H](C)C(F)(F)F)c(F)c3)cn12 , write its inhibition at 1 µM.
> 70%

For COCc1nnc2ccc(-c3cnc(O[C@H](C)C(F)(F)F)c(F)c3)nn12 , write its inhibition at 1 µM.
30 to 70%

Next:
For CCOC(F)(F)c1nnc2ccc(-c3cnc(OCC(F)(F)F)c(F)c3)nn12 , write its inhibition at 1 µM.
> 70%

For CCOC(F)(F)c1nnc2cnc(-c3cnc(OCC(F)(F)F)c(F)c3)cn12 , write its inhibition at 1 µM.
> 70%

For COCc1nnc2ccc(-c3ccc(OC(C)(C)C(F)(F)F)nc3)cn12 , write its inhibition at 1 µM.
30 to 70%

For COCc1nnc2ccc(-c3cnc(O[C@H](C)C(F)(F)F)c(F)c3)cn12 , write its inhibition at 1 µM.
< 30%

For Fc1cc(-c2cn3c(C(F)(F)OCC4CC4)nnc3cn2)cnc1OCC(F)(F)F , write its inhibition at 1 µM.
> 70%

For CC(C)OC(F)(F)c1nnc2ccc(-c3cnc(O[C@H](C)C(F)(F)F)c(F)c3)cn12 , write its inhibition at 1 µM.
> 70%

For CCOC(F)(F)c1nnc2ccc(-c3cnc(OCC(F)(F)F)c(F)c3)cn12 , write its inhibition at 1 µM.
> 70%

For CC(C)COC(F)(F)c1nnc2ccc(-c3cnc(OCC(F)(F)F)c(F)c3)cn12 , write its inhibition at 1 µM.
> 70%

For COCc1nnc2cc(C)c(-c3cnc(O[C@@H](C)C(F)(F)F)c(F)c3)nn12 , write its inhibition at 1 µM.
< 30%

For CC(C)OC(F)(F)c1nnc2ccc(-c3cnc(O[C@@H](C)C(F)(F)F)c(F)c3)cn12 , write its inhibition at 1 µM.
> 70%

For COC(F)(F)c1nnc2ccc(-c3cnc(OC(C)(C)C(F)(F)F)c(F)c3)cn12 , write its inhibition at 1 µM.
> 70%

For CC(C)COC(F)(F)c1nnc2ccc(-c3cnc(O[C@H](C)C(F)(F)F)c(F)c3)cn12 , write its inhibition at 1 µM.
> 70%

For CCOCc1nnc2cnc(-c3cnc(O[C@@H](C)C(F)(F)F)c(F)c3)cn12 , write its inhibition at 1 µM.
> 70%

For COC(F)(F)c1nnc2cnc(-c3cnc(OCC(F)(F)F)c(F)c3)cn12 , write its inhibition at 1 µM.
> 70%

---

# Assayed system: hNaV1.6-R223G (Homo sapiens, UniProt Q9UQD0, R223G)
# Construct: expressed in transfected cells; host or cells: HEK-293
# Sequence (Q9UQD0 whole entry R223G): as the sequence (Q9UQD0 whole entry N984K) above, with R223G, K984N counted along it
# Assay text: Voltage ramp activated sodium current (Ramp INa), PatchXpress, HEK-293
# Format: cell-based
# Conditions used: HEK293; percent inhibition of enhanced ramp current at 1 μM; +600 mv/sec ramp from −100 mV to +20 mV
inhibition at 1 µM values by entry

For COC(F)(F)c1nnc2cnc(-c3ccc(OC(C)(C)C(F)(F)F)nc3)cn12 [Compound 56] , write its inhibition at 1 µM.
< 50%

For COC(F)(F)c1nnc2cnc(-c3ccc(O[C@@H](C)C(F)(F)F)nc3)cn12 [Compound 59] , write its inhibition at 1 µM.
> 50%

For COC(F)(F)c1nnc2cnc(-c3cnc(OCC(F)(F)F)c(F)c3)cn12 [Compound 53] , write its inhibition at 1 µM.
< 50%

For COCc1nnc2cnc(-c3cnc(OC(C)(C)C(F)(F)F)c(F)c3)cn12 [Compound 48] , write its inhibition at 1 µM.
< 50%

For CCOC(F)(F)c1nnc2cnc(-c3cnc(OCC(F)(F)F)c(F)c3)cn12 [Compound 10] , write its inhibition at 1 µM.
> 50%

Next:
For COC(F)(F)c1nnc2cnc(-c3cnc(O[C@@H](C)C(F)(F)F)c(F)c3)cn12 [Compound 6B] , write its inhibition at 1 µM.
> 50%

For COC(F)(F)c1nnc2cnc(-c3ccc(O[C@H](C)C(F)(F)F)nc3)cn12 [Compound 62] , write its inhibition at 1 µM.
< 50%

For CCOC(F)(F)c1nnc2ccc(-c3cnc(OCC(F)(F)F)c(F)c3)cn12 [Compound 3] , write its inhibition at 1 µM.
> 50%

For COC(F)(F)c1nnc2cnc(-c3cnc(OC4(C(F)(F)F)CCC4)c(F)c3)cn12 [Compound 11] , write its inhibition at 1 µM.
< 50%

---

# Assayed system: human NaV1.6 (hNaV1.6) (Homo sapiens, UniProt Q9UQD0)
# Construct: expressed in transfected cells; host or cells: HEK-293
# Assay text: Modulation of late sodium current (INaL), PatchXpress electrophysiology, HEK-293 cells expressing hNaV1.6
# Type: cell-based
# Conditions used: HEK293, late current evoked by 300 nM ATX-II, read-out: NaV 1.6 Assay Data: percent inhibition of INaL at hNaV1.6
Endpoint name: inhibition at 1 µM

Below: 4 compounds and their reported inhibition at 1 µM.
For CCOC(F)(F)c1nnc2cnc(-c3ccc(OCC(F)(F)F)nc3)cn12 [Compound 81] , write its inhibition at 1 µM.
> 70%

For COCc1nnc2cnc(-c3cnc(O[C@@H](C)C(F)(F)F)c(F)c3)cn12 [Compound 38] , write its inhibition at 1 µM.
30 to 70%

For COCc1nnc2cnc(-c3cnc(O[C@H](C)C(F)(F)F)c(F)c3)cn12 [Compound 31] , write its inhibition at 1 µM.
< 30%

For COC(F)(F)c1nnc2ccc(-c3cnc(O[C@H](C)C(F)(F)F)c(F)c3)nn12 [Compound 13] , write its inhibition at 1 µM.
> 70%

Next:
For Fc1cc(-c2ccc3nnc(C(F)(F)OCC4CC4)n3n2)cnc1OCC(F)(F)F [Compound 14] , write its inhibition at 1 µM.
> 70%

For COC(F)(F)c1nnc2cnc(-c3ccc(O[C@@H](C)C(F)(F)F)nc3)cn12 [Compound 59] , write its inhibition at 1 µM.
> 70%

For COCc1nnc2ccc(-c3cnc(OC(C)(C)C(F)(F)F)c(F)c3)nn12 [Compound 27] , write its inhibition at 1 µM.
> 70%

For COC(F)(F)c1nnc2cnc(-c3cnc(O[C@@H](C)C(F)(F)F)c(F)c3)c(C)n12 [Compound 58] , write its inhibition at 1 µM.
> 70%
